- Tested system: human c-MER catalytic domain (Homo sapiens (Human), UniProt Q12866)
- Sequence (Q12866 587-858): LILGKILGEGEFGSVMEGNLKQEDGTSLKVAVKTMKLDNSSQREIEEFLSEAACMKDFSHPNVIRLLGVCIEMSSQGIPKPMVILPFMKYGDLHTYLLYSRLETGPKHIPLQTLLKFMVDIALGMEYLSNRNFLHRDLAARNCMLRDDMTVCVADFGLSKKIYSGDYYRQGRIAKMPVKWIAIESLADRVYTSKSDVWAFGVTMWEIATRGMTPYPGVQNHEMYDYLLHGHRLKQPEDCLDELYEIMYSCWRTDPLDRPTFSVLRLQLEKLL
pIC50: −log10 of the molar value.

>  <Compound>
C[C@@H]1CN(Cc2ccc(-c3ccc(CO[C@H]4CCC[C@@H]4NC(=O)c4cc(-c5cnn(C)c5)cnc4N)cc3)cc2)C[C@H](C)N1C [Example 190]

>  <Tested system>
human c-MER catalytic domain (Homo sapiens (Human), UniProt Q12866)

>  <pIC50>
> 8.00

$$$$
>  <Compound>
C[C@@H]1CN(C)[C@@H](C)CN1Cc1ccc(-c2ccc(CO[C@H]3CCC[C@@H]3NC(=O)c3cc(-c4cnn(C)c4)cnc3N)cc2)cc1 [Example 192]

>  <Tested system>
human c-MER catalytic domain (Homo sapiens (Human), UniProt Q12866)

>  <pIC50>
> 8.00

$$$$
>  <Compound>
CCc1cc(CO[C@H]2CNC[C@@H]2NC(=O)c2cc(-c3ccc(CO)cc3)cnc2N)ccc1C [Example 389]

>  <Tested system>
human c-MER catalytic domain (Homo sapiens (Human), UniProt Q12866)

>  <pIC50>
> 8.00

$$$$

###

- Test system: Ba/F3-CDM cells (Ba/F3 transfected with CD8-MerTK)
- Method: In cell MER kinase assay, Ba/F3-CDM cell proliferation without IL-3 (Celltiter-Glo, GI50)
- Type: cell-based, murine
- Test context: 48 hours, read-out: Cell growth inhibition (GI50)
Readout: GI50

>  <Query smiles>
COc1ccc(-c2cnc(N)c(C(=O)N[C@H]3CCC[C@@H]3OCc3ccc(-c4ccc(CN5CCN(C)CC5)cc4)cc3)c2)cc1

>  <Value>
< 100 nM

$$$$
>  <Query smiles>
Cc1ccc(CO[C@H]2CCC[C@@H]2NC(=O)c2cc(-c3ccc(CN4CCC(N5CCCC5)CC4)c(F)c3)cnc2N)cc1C

>  <Value>
> 1000 nM

$$$$
>  <Query smiles>
Cc1cc(-c2ccc(CO[C@H]3CCC[C@@H]3NC(=O)c3cc(-c4cnn(C)c4)cnc3N)cc2)ccc1CN1CCN(C)CC1

>  <Value>
< 100 nM

$$$$
>  <Query smiles>
CN1C[C@H](NC(=O)c2cc(-c3cnn(C)c3)cnc2N)[C@@H](OCc2ccc(-c3ccc(CN4CCN(CCO)CC4)cc3)cc2)C1

>  <Value>
< 100 nM

$$$$
>  <Query smiles>
C[C@@H]1CN(C)CCN1Cc1ccc(-c2ccc(CO[C@H]3CCC[C@@H]3NC(=O)c3cc(-c4cnn(C)c4)cnc3N)cc2)cc1

>  <Value>
< 100 nM

$$$$
>  <Query smiles>
CN1CCN(Cc2ccc(-c3ccc(CO[C@H]4CCC[C@@H]4NC(=O)c4cc(-c5ccc(N6CCOCC6)cc5)cnc4N)cc3)cc2)CC1

>  <Value>
< 100 nM

$$$$

###

- System: Ba/F3-CDM cells (Ba/F3 transfected with CD8-MerTK)
- Method: In cell MER kinase assay, Ba/F3-CDM cell proliferation without IL-3 (Celltiter-Glo, GI50)
- Type: cell-based, murine
- Test context: 48 hours, read-out: Cell growth inhibition (GI50)

>  <Query smiles>
Cn1cc(-c2cnc(N)c(C(=O)N[C@H]3CCC[C@@H]3OCc3ccc(-c4ccc(CC5CCN(CCO)CC5)cc4)cc3)c2)cn1

>  <GI50>
< 100 nM

$$$$
>  <Query smiles>
CN1CCN(C(C)(C)c2ccc(-c3ccc(CO[C@H]4COC[C@@H]4NC(=O)c4cc(-c5cnn(C)c5)cnc4N)cc3)cc2)CC1

>  <GI50>
< 100 nM

$$$$
>  <Query smiles>
CN(C)c1ccc(-c2ccc(CO[C@H]3CCC[C@@H]3NC(=O)c3cc(-c4cnn(C)c4)cnc3N)cc2)cc1

>  <GI50>
< 100 nM

$$$$

FYI, the data here is from patent US10947215B2.
